The measured values listed here are drawn from patent US20220259288A1.

biological target: T1, HLA-DRB5*01:01 (human); test: HLA class II competition binding assay
T1 construct: MHC class II molecule; how it was prepared for the assay is not described
recorded.endpoint: pIC50
Give bare numbers, as −log10 of the molar value.

# binder, reported.value
records = [
    ("TLTAFGFASADLIEI [ApoB100 peptide 3563.0005]", 6.56),
    ("KIVSLIKNLLVALKD [ApoB100 peptide 3563.0028]", 7.85),
    ("VGSKLIVAMSSWLQK [ApoB100 peptide 3563.0008]", 7.64),
]

Request: Would you kindly share the measured pIC50 for LSQLQTYMIQFDQYI [ApoB100 peptide 3563.0012] ?
Result: 6.08
